# System: SMAD3 MH1 (Homo sapiens, UniProt P84022 1-132)
# Sequence (P84022 1-132): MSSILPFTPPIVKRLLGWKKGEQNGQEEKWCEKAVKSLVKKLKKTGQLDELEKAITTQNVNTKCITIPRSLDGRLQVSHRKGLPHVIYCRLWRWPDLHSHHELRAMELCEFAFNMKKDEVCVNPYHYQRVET
# Test Protocol: EMSA; Hill 1.8; EMSA: 25 mM Tris-HCl (pH not given for binding buffer; RNA stock pH 7.5), 115 mM KCl, 1 mM MgCl2, 1 mM DTT, 20 ng/ul poly I:C, 0.1 mg/ml BSA, 10% glycerol, on ice 2 h; 0.5x TBE gel at 4 C
# Condition Parameters: protein: recombinant; tags: 6xHis-SUMO cleaved; label: 5' 32P; hairpin with 4x3 internal loop
Measurement Label: Kd (µM)
Your answer should be a plain number; it is taken to be in µM.

Form field: reported Kd of GAUACUUGAAACUGUAAGGUUGGCGUAUC (structured_RNA) [20 NF-kB aptamer]
4.4
